- Tested System: T1, human MSLN-R1-his protein (human, UniProt Q13421 296-390)
- T1 construct: Made in HEK293E cells, purified on nickel column; also called hMSLN-R1-his; human MSLN-R1 protein; not shown: His tag
- T1 chain: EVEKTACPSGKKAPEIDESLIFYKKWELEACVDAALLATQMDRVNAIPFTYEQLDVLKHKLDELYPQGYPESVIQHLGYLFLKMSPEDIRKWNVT
- Test: ELISA, coated antigen, antibody 0.02 nM
Assay Endpoint: OD450
// no unit, no text: just the number

S009-F7.26.15 chimeric antibody (antibody, human IgG1, kappa, V domains shown, Human-murine chimeric antibody, human IgG1/kappa constant regions) VH: DVQLQESGPGLVKPSQTVFLTCTVTGISITTGNYRWSWIRQFPGNKLEWIGYIYYTGFITYNPSLTSRTTITRDTPKNQFFLEMKSLTAEDTATYYCARDDYDYDVFAYWGQGTLVTVSA VL: DIQMTQSPASLSASVGETVTITCRASGNIHNYLAWYHQKQGKSPQFLVYKAKTLADGVPSRFSGSGSGTQYSLKINRLQPEDFGSYYCQHFLSIPLTFGAGTKLELKR	0.05
S009-F7.11.11 chimeric antibody (antibody, human IgG1, kappa, V domains shown, Human-murine chimeric antibody, human IgG1/kappa constant regions) VH: EVQLQQSGPELVKPGASVKIPCKASGYTITDYNMDWVKQSRGKSLEWIGDVFPYNGDSIYNQKFEGRATLTVDKYSSTAYMELRGLTSEDTAVYFCARRKTGTGYFDVWGTGTTVTVSS VL: QLVLTQSPAIMSASPGEKVTLTCSASSSVSSTYLSWYLQKPGSSPKLWIYSTSNLASGVPARFSGSGSGTSYSLTISSMEAEDAASYFCHQWSSYPYTFGGGTKLEIKR	0.05
S009-F7.33.24 chimeric antibody (antibody, human IgG1, kappa, V domains shown, Human-murine chimeric antibody, human IgG1/kappa constant regions) VH: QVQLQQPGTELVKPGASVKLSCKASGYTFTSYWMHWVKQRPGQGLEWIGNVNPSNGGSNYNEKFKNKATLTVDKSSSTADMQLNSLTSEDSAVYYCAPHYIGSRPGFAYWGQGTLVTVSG VL: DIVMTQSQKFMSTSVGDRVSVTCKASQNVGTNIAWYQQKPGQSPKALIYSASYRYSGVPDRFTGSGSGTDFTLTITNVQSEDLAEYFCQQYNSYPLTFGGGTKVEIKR	0.06

Qu. Given the binder S009-F7.6.17 chimeric antibody (antibody, human IgG1, kappa, V domains shown, Human-murine chimeric antibody, human IgG1/kappa constant regions) VH: QVQLQQSGAELARPGASVKMSCKASGYTFTTYTMHWVKQRPGQGLEWIGYISPTGDFTKYNQKFKDKATLTTDKSSNTAFMQLSSLTSEDSAVYYCARWNGTVWFAYWGQGTLVTVSA VL: DIVMTQSQKFMSTSVGDRVTVTCKASQALGTNVAWYQQKPGQSPKVLIYSASYRYSGVPYRFAGGGSGTDFTLTITNVQSEDLAEYFCQQYNNYPLTFGAGTKLELKR , what is its reported OD450?
Ans. 0.05

FYI, the data here is from patent US20250250357A1.
